Here the recorded pIC50 is given for each entry.
# ASSAYED SYSTEM: hAR (human androgen receptor) (Homo sapiens, UniProt P10275)
# Construct: made in house; host or cells: baculovirus/Sf9 insect cells (crude extract)
# Sequence (P10275 whole entry): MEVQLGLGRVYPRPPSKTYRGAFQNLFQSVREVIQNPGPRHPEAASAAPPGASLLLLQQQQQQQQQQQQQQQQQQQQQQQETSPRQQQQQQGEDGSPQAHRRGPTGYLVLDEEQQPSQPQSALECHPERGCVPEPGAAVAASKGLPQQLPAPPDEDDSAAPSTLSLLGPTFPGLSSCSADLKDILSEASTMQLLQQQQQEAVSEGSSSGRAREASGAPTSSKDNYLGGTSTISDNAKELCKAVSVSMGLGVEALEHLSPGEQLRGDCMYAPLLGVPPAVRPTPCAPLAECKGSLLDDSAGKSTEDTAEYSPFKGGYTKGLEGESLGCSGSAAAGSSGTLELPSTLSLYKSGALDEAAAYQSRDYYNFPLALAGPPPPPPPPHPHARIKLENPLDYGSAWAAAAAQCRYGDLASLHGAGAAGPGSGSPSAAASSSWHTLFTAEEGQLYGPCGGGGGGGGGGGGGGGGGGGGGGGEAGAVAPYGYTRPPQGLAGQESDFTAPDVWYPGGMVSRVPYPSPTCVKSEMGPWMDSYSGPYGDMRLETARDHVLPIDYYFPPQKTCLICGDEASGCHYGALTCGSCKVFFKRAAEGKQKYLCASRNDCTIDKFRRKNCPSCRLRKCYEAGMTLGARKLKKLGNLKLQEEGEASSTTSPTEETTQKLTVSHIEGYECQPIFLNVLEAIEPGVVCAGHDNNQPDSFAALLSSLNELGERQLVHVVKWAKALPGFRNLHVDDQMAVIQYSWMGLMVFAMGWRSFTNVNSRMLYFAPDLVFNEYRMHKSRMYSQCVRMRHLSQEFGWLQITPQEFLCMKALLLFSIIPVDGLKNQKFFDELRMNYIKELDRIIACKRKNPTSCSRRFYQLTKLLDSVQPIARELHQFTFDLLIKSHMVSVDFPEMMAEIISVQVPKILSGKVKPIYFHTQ
# ASSAY NOTES: Competitive hAR binding assay with 3H-DHT tracer
pIC50: −log10 of the molar value.
REPORTED METRIC: pIC50

                                   molecule  reported_metric  value_reported
0  N#Cc1ccc(Oc2cccc(O)c2)cc1C(F)(F)F [Example 82]            pIC50            7.07
1  Cc1ccc(C(C)C)c(Oc2ccc(C#N)c(Cl)c2)c1 [Example 49]            pIC50            7.10
2  N#Cc1ccc(Oc2cccc3ccccc23)cc1C(F)(F)F [Example 97]            pIC50            7.00
3  CC(N)c1cc(F)ccc1Oc1ccc(C#N)c(C(F)(F)F)c1 (stereo not shown) [Example 122]            pIC50            8.70
4  N#Cc1ccc(Oc2c(F)cccc2F)cc1C(F)(F)F [Example 121]            pIC50            7.20
5  Cc1ccc(Oc2ccc(C#N)c(C(F)(F)F)c2)c(C)c1 [Example 99]            pIC50            7.34
6  COc1c(O)cccc1Oc1ccc(C#N)c(C(F)(F)F)c1 [Example 116]            pIC50            7.52
7  C=CCc1ccccc1Oc1ccc(C#N)c(Cl)c1 [Example 51]            pIC50            7.21
8  N#Cc1ccc(Oc2ccccc2C(F)(F)F)cc1C(F)(F)F [Example 108]            pIC50            7.24
9  COc1cccc(F)c1Oc1ccc(C#N)cc1Cl [Example 19]            pIC50            7.55

====

# ASSAYED SYSTEM: hAR (human androgen receptor) (Homo sapiens)
# Construct: made in house; host or cells: baculovirus/Sf9 insect cells (crude extract)
# ASSAY NOTES: Competitive hAR binding assay with 3H-DHT tracer
# ASSAY CONTEXT: baculovirus/Sf9 hAR extract, 1 nM 3H-DHT, one hour at 4° C; mean of multiple tests; read-out: AR Binding IC50
Each record is given Fulfilled if its reported IC50 is strictly below 200 nM. Records at or above 200 nM are given Not fulfilled.

In [3]: df
Out[3]:
                          chemical_structure  category_label
 0        Cc1ccc(C(C)C)cc1Oc1ccc(C#N)c(Cl)c1       Fulfilled
 1                 COc1cc(Oc2ccccc2C)ccc1C#N       Fulfilled
 2     N#CCOc1ccccc1Oc1ccc(C#N)c(C(F)(F)F)c1       Fulfilled
 3  N#Cc1ccc(Oc2ccccc2[N+](=O)[O-])cc1C(F)(F)F   Not fulfilled
 4  C[C@H](O)CNC(=O)c1ccccc1Oc1ccc(C#N)c(C(F)(F)F)c1   Not fulfilled
 5  CC(=O)c1c(O)cccc1Oc1ccc(C#N)c(C(F)(F)F)c1       Fulfilled
 6            Cc1ccc(Oc2ccc(C#N)cc2Cl)c(C)c1   Not fulfilled
 7    COc1cccc(Oc2ccc(C#N)c(C(F)(F)F)c2)c1OC   Not fulfilled
 8         CSc1ccc(Oc2ccc(C#N)c(Cl)c2)c(C)c1   Not fulfilled
 9  CCN(CC)Cc1c(C)ccc(C)c1Oc1ccc(C#N)c(C(F)(F)F)c1   Not fulfilled
10  CC(C)(CO)CNC(=O)c1ccccc1Oc1ccc(C#N)c(C(F)(F)F)c1   Not fulfilled
11               N#Cc1ccc(Oc2ccc(F)cc2)cc1Cl       Fulfilled

Data origin: patent US20090105349A1
